# procedure-summary: Evaluation of solubility in organic solvents (visual observation of complete dissolution)
# Assay type: physicochemical
# protocol-conditions: chloroform, 60° C.
Let's look at some molecules and their measured solubility (solute concentration completely dissolved).
recorded-endpoint: solubility (solute concentration completely dissolved)

INSERT INTO results (molecule, experimental_result) VALUES
  ('CCCCCCCCCCCCCCc1cc(-c2ccc(-c3c4c(c(-c5ccc(-c6ccc(C#N)c(CCCCCCCCCCCCCC)c6)s5)c5nsnc35)N=S=N4)s2)ccc1C#N', '≥ 0.2 wt %'),
  ('CCCCCCCCCc1cc(-c2ccc(-c3c4c(c(-c5ccc(-c6ccc(C#N)c(CCCCCCCCC)c6)s5)c5nsnc35)N=S=N4)s2)ccc1C#N', '≥ 0.2 wt %'),
  ('CCCCCCCCc1ccc(-c2ccc(-c3c4c(c(-c5ccc(-c6ccc(CCCCCCCC)c(C(F)(F)F)c6)s5)c5nsnc35)N=S=N4)s2)cc1C(F)(F)F', '≥ 0.2 wt %'),
  ('CCCCC(CC)Cc1cc(-c2ccc(-c3c4c(c(-c5ccc(-c6ccc(C(F)(F)F)c(CC(CC)CCCC)c6)s5)c5nsnc35)N=S=N4)s2)ccc1C(F)(F)F (stereo not shown)', '≥ 0.2 wt %'),
  ('CCCCCCCCc1cc(-c2ccc(-c3c4c(c(-c5ccc(-c6ccc(C(F)(F)F)c(CCCCCCCC)c6)s5)c5nsnc35)N=S=N4)s2)ccc1C(F)(F)F', '≥ 0.2 wt %'),
  ('CCCCCCCCCCCCc1cc(-c2ccc(-c3c4c(c(-c5ccc(-c6ccc(C(F)(F)F)c(CCCCCCCCCCCC)c6)s5)c5nsnc35)N=S=N4)s2)ccc1C(F)(F)F', '≥ 0.1 wt %'),
  ('CCCCCCCCCCCCCCCCCCc1cc(-c2ccc(-c3c4c(c(-c5ccc(-c6ccc(C#N)c(CCCCCCCCCCCCCCCCCC)c6)s5)c5nsnc35)N=S=N4)s2)ccc1C#N', '≥ 0.1 wt %'),
  ('CCCCCCCCc1cc(-c2ccc(-c3c4c(c(-c5ccc(-c6ccc(C#N)c(CCCCCCCC)c6)s5)c5nsnc35)N=S=N4)s2)ccc1C#N', '≥ 0.2 wt %'),
  ('CCCCCCCCCCCCc1cc(-c2ccc(-c3c4c(c(-c5ccc(-c6ccc(C#N)c(CCCCCCCCCCCC)c6)s5)c5nsnc35)N=S=N4)s2)ccc1C#N', '≥ 0.2 wt %'),
  ('CCCCCCCCCCCCCCCCc1cc(-c2ccc(-c3c4c(c(-c5ccc(-c6ccc(C#N)c(CCCCCCCCCCCCCCCC)c6)s5)c5nsnc35)N=S=N4)s2)ccc1C#N', '≥ 0.2 wt %');
